Cited source for all entries: PubChem BioAssay AID1963959

system: T-47D spheroids with HUVEC/MSC, viability; assay: Anticancer human tumor T-47D cell line growth inhibition [PI3K]; settings: curve of first compound; second compound 0.1 µM;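 also: spheroids exposed to agents for seven days before reading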
pIC50: −log10 of the molar value.
Provide the reported pIC50 of each item.

Give pIC50 only, for CC(Cn1ccc(-c2ccc(C#N)c(Cl)c2)n1)NC(=O)c1cc(C(C)O)[nH]n1 (configuration not stated) + COc1c(OCCCN2CCOCC2)ccc2c3n(c(=NC(=O)c4cnc(N)nc4)nc12)CCN3 , using T-47D spheroids with HUVEC/MSC, viability data.
> 7.50

Give pIC50 only, for Cn1ncc(Cl)c1-c1cc(C(=O)NC(CN)Cc2cccc(F)c2)sc1Cl (configuration not stated) + Cc1nc(NC(=O)N2CCCC2C(N)=O)sc1-c1ccnc(C(C)(C)C(F)(F)F)c1 , using T-47D spheroids with HUVEC/MSC, viability data.
< 5.00

Give pIC50 only, for Cn1ncnc1[C@H]1c2n[nH]c(=O)c3cc(F)cc(c23)N[C@@H]1c1ccc(F)cc1 + CC(Nc1ncnc2nc[nH]c12)c1cc2cccc(Cl)c2c(=O)n1-c1ccccc1 , using T-47D spheroids with HUVEC/MSC, viability data.
< 7.00

Give pIC50 only, for CCN1CCN(Cc2ccc(Nc3ncc(F)c(-c4cc(F)c5nc(C)n(C(C)C)c5c4)n3)nc2)CC1 + Cc1nc(NC(=O)N2CCCC2C(N)=O)sc1-c1ccnc(C(C)(C)C(F)(F)F)c1 , using T-47D spheroids with HUVEC/MSC, viability data.
< 6.00

Give pIC50 only, for CC(=O)c1c(C)c2cnc(Nc3ccc(N4CCNCC4)cn3)nc2n(C2CCCC2)c1=O + Cc1nc(NC(=O)N2CCCC2C(N)=O)sc1-c1ccnc(C(C)(C)C(F)(F)F)c1 , using T-47D spheroids with HUVEC/MSC, viability data.
< 7.00

Give pIC50 only, for CCCS(=O)(=O)Nc1ccc(F)c(C(=O)c2c[nH]c3ncc(-c4ccc(Cl)cc4)cc23)c1F + Cc1nc(NC(=O)N2CCCC2C(N)=O)sc1-c1ccnc(C(C)(C)C(F)(F)F)c1 , using T-47D spheroids with HUVEC/MSC, viability data.
5.09

Give pIC50 only, for Cn1nccc1Nc1nccc(-c2ccn(C(CO)c3ccc(Cl)c(F)c3)c(=O)c2)n1 (configuration not stated) + CC(Nc1ncnc2nc[nH]c12)c1cc2cccc(Cl)c2c(=O)n1-c1ccccc1 , using T-47D spheroids with HUVEC/MSC, viability data.
< 5.00

Give pIC50 only, for Cn1cnc2c(F)c(Nc3ccc(Br)cc3Cl)c(C(=O)NOCCO)cc21 + CC(Nc1ncnc2nc[nH]c12)c1cc2cccc(Cl)c2c(=O)n1-c1ccccc1 , using T-47D spheroids with HUVEC/MSC, viability data.
< 5.52

Give pIC50 only, for CC(=O)c1c(C)c2cnc(Nc3ccc(N4CCNCC4)cn3)nc2n(C2CCCC2)c1=O + CC(Nc1ccc2c(c1)OCCn1cc(N3C(=O)OCC3C(F)F)nc1-2)C(N)=O , using T-47D spheroids with HUVEC/MSC, viability data.
< 7.00

Give pIC50 only, for CNC(=O)c1ccc(N2C(=S)N(c3ccc(C#N)c(C(F)(F)F)c3)C(=O)C2(C)C)cc1F + CC(Nc1ccc2c(c1)OCCn1cc(N3C(=O)OCC3C(F)F)nc1-2)C(N)=O , using T-47D spheroids with HUVEC/MSC, viability data.
< 5.00

Give pIC50 only, for CC(=O)c1c(C)c2cnc(Nc3ccc(N4CCNCC4)cn3)nc2n(C2CCCC2)c1=O + CC(Nc1ncnc2nc[nH]c12)c1cc2cccc(Cl)c2c(=O)n1-c1ccccc1 , using T-47D spheroids with HUVEC/MSC, viability data.
< 7.00

Give pIC50 only, for C=CC(=O)N1CCN(c2nc(=O)n(-c3c(C)ccnc3C(C)C)c3nc(-c4c(O)cccc4F)c(F)cc23)C(C)C1 (configuration not stated) + CC(Nc1ccc2c(c1)OCCn1cc(N3C(=O)OCC3C(F)F)nc1-2)C(N)=O , using T-47D spheroids with HUVEC/MSC, viability data.
< 5.00

Give pIC50 only, for CNC(=O)c1ccc(N2C(=S)N(c3ccc(C#N)c(C(F)(F)F)c3)C(=O)C2(C)C)cc1F + COc1c(OCCCN2CCOCC2)ccc2c3n(c(=NC(=O)c4cnc(N)nc4)nc12)CCN3 , using T-47D spheroids with HUVEC/MSC, viability data.
> 7.50

Give pIC50 only, for CC(C)n1nc(-c2ccc3oc(N)nc3c2)c2c(N)ncnc21 + CC(Nc1ncnc2nc[nH]c12)c1cc2cccc(Cl)c2c(=O)n1-c1ccccc1 , using T-47D spheroids with HUVEC/MSC, viability data.
7.08

Give pIC50 only, for CC(Cn1ccc(-c2ccc(C#N)c(Cl)c2)n1)NC(=O)c1cc(C(C)O)[nH]n1 (configuration not stated) + Cc1nc(NC(=O)N2CCCC2C(N)=O)sc1-c1ccnc(C(C)(C)C(F)(F)F)c1 , using T-47D spheroids with HUVEC/MSC, viability data.
< 5.00

Give pIC50 only, for C#Cc1c(F)ccc2cc(O)cc(-c3ncc4c(N5CC6CCC(C5)N6)nc(OCC56CCCN5CC(F)C6)nc4c3F)c12 (configuration not stated) + CC(Nc1ccc2c(c1)OCCn1cc(N3C(=O)OCC3C(F)F)nc1-2)C(N)=O , using T-47D spheroids with HUVEC/MSC, viability data.
< 5.00

Give pIC50 only, for CC(C)NCC(C(=O)N1CCN(c2ncnc3c2C(C)CC3O)CC1)c1ccc(Cl)cc1 (configuration not stated) + Cc1nc(NC(=O)N2CCCC2C(N)=O)sc1-c1ccnc(C(C)(C)C(F)(F)F)c1 , using T-47D spheroids with HUVEC/MSC, viability data.
5.10

Give pIC50 only, for Cn1cnc2c(F)c(Nc3ccc(Br)cc3Cl)c(C(=O)NOCCO)cc21 + Cc1nc(NC(=O)N2CCCC2C(N)=O)sc1-c1ccnc(C(C)(C)C(F)(F)F)c1 , using T-47D spheroids with HUVEC/MSC, viability data.
< 5.52

Give pIC50 only, for Cn1ncc(Cl)c1-c1cc(C(=O)NC(CN)Cc2cccc(F)c2)sc1Cl (configuration not stated) + CC(Nc1ccc2c(c1)OCCn1cc(N3C(=O)OCC3C(F)F)nc1-2)C(N)=O , using T-47D spheroids with HUVEC/MSC, viability data.
< 5.00

Give pIC50 only, for C[C@@H](NC(=O)c1ncnc(N)c1Cl)c1ncc(C(=O)Nc2cc(C(F)(F)F)c(Cl)cn2)s1 + COc1c(OCCCN2CCOCC2)ccc2c3n(c(=NC(=O)c4cnc(N)nc4)nc12)CCN3 , using T-47D spheroids with HUVEC/MSC, viability data.
> 7.50

Give pIC50 only, for CC1(C)CCC(Nc2ncc(C(F)(F)F)c(-c3c[nH]c4c(P(C)(C)=O)c(C#N)ccc34)n2)CN1 (configuration not stated) + Cc1nc(NC(=O)N2CCCC2C(N)=O)sc1-c1ccnc(C(C)(C)C(F)(F)F)c1 , using T-47D spheroids with HUVEC/MSC, viability data.
< 5.00

Give pIC50 only, for CCN1CCN(Cc2ccc(Nc3ncc(F)c(-c4cc(F)c5nc(C)n(C(C)C)c5c4)n3)nc2)CC1 + COc1c(OCCCN2CCOCC2)ccc2c3n(c(=NC(=O)c4cnc(N)nc4)nc12)CCN3 , using T-47D spheroids with HUVEC/MSC, viability data.
> 8.50

* * *

Provide the reported viability, T/C of each item.
tested on: T-47D spheroids with HUVEC/MSC, viability; test: Anticancer human tumor T-47D cell line growth inhibition [PI3K]; settings: second compound 0.1 µM; first compound 0.1 µM; stronger effect = lower value;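 also: spheroids exposed to agents for seven days before reading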;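 as to viability, T/C: percent of DMSO vehicle control luminescence so 100% = untreated growth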
Form entry: value (%) — number only.

Let me know recorded viability, T/C for CC(Cn1ccc(-c2ccc(C#N)c(Cl)c2)n1)NC(=O)c1cc(C(C)O)[nH]n1 (stereo unspecified) + CC(Nc1ncnc2nc[nH]c12)c1cc2cccc(Cl)c2c(=O)n1-c1ccccc1 , thanks.
80

Let me know recorded viability, T/C for CC1(C)CCC(Nc2ncc(C(F)(F)F)c(-c3c[nH]c4c(P(C)(C)=O)c(C#N)ccc34)n2)CN1 (stereo unspecified) + COc1c(OCCCN2CCOCC2)ccc2c3n(c(=NC(=O)c4cnc(N)nc4)nc12)CCN3 , thanks.
33.8

Let me know recorded viability, T/C for Cn1ncc(Cl)c1-c1cc(C(=O)NC(CN)Cc2cccc(F)c2)sc1Cl (stereo unspecified) + CC(Nc1ncnc2nc[nH]c12)c1cc2cccc(Cl)c2c(=O)n1-c1ccccc1 , thanks.
79.2

Let me know recorded viability, T/C for CC(C)n1nc(-c2ccc3oc(N)nc3c2)c2c(N)ncnc21 + Cc1nc(NC(=O)N2CCCC2C(N)=O)sc1-c1ccnc(C(C)(C)C(F)(F)F)c1 , thanks.
27.9

Let me know recorded viability, T/C for C#Cc1c(F)ccc2cc(O)cc(-c3ncc4c(N5CC6CCC(C5)N6)nc(OCC56CCCN5CC(F)C6)nc4c3F)c12 (stereo unspecified) + Cc1nc(NC(=O)N2CCCC2C(N)=O)sc1-c1ccnc(C(C)(C)C(F)(F)F)c1 , thanks.
72.2

Let me know recorded viability, T/C for Cn1ncnc1[C@H]1c2n[nH]c(=O)c3cc(F)cc(c23)N[C@@H]1c1ccc(F)cc1 + CC(Nc1ccc2c(c1)OCCn1cc(N3C(=O)OCC3C(F)F)nc1-2)C(N)=O , thanks.
76.2
